assayProcedure: yeast display, Sf9 membrane polyspecificity reagent, FACS + sequencing; frameworks hold sequencing errors
property: polyreactivity (PSR sort gate)

Worked cases, polyreactivity (PSR sort gate) given:
1) QVQLVESGGGLVQAGGSLRLSCAASGRIFYFYAMGWYRQAPGKERELVAAITGSAGGTYYADSVKGRFTISRDNAKNTVYLQMNSLKPEDTAVYYCNAGSTRYWRSRYDYWGQGTQVTVSS :: low polyreactivity
2) QVQLVESGGGLVQAGGSLRLSCAASGRTFYAYAMGWSRQAPGKERELVAAISWRGGDTYYADSVKGRFTISRDNAKNTVYLQMNSLKPEDTAVYYCAKYLSRQSGDGEYDYWGQGTQVTVSS :: low polyreactivity
3) QVQLVESGGGLVQAGGSLRLSCAASGFTFSYYAMGWYRQAPGKERELVAAISSGGSTYYADSVKGRFTISRDNAKNTVYLQMHRLKPEDTAVYYCNVLNYSSRHYLFSYDYWGQGTQVTVSS :: high polyreactivity
4) QVQLVESGGGLVQAGGSLRLSCAASGFTLRAYAMGWYRQAPGKERELVAAISSGGSTYADSVKGRFTISRDNAKNTVYLQMNSLKPEDTAVYYCAADGSKLFYSKFRYVQYGYWGQGTQVTVSS :: high polyreactivity
5) QVQLVESGGGLVQAGGSLRLSCAASGRTYPYAMGLYRQAPGKEREFVAAITSSGGSTYYADSVKGRFTISRDNAKNTVYLQMNSLKPEDTAVYYCAAEYYFLEYDYWGQGTQVTVSS :: low polyreactivity

Query: polyreactivity (PSR sort gate); subject: "QVQLVESGGGLVQAGGSLRLSCAASGRTFTSYAMGWYRQAPGKERELVAAISGNGVTTYYADSVKGRFTISRDNAKNTLYLQINSLKPEDTAVYYCAAGQRRFGYYYWGQGTQVTVSS"
high polyreactivity

Query: polyreactivity (PSR sort gate); subject: "QVQLVESGGGLVQAGGSLRLSCAASGSISIQYVMGWYRPAPGKERELVAAIRVIGGSTSYADSVKGRFTISRDNAKNTVYLQMNSLKPEDTAVYYCAADWAWTISDGYYYGYPQYDYWGQGTQVTVSS"
high polyreactivity

Query: polyreactivity (PSR sort gate); subject: "QVQLVESGGGLVQAGGSLRLSCAASGNTFKGYAMGWYRQAPGKERELVAAISWSGSSTYYADSVKGRFTISRDYAKNTVYLQMNILKPEDTAVYYCNRKYLGRYASVYGYGYWGQGTQVTVSS"
high polyreactivity

Query: polyreactivity (PSR sort gate); subject: "QDQLVESGGGLVQAGGSLRLSCAASGSTIDDYARGWYRQAPGKERELVAAITWTSTDTYADSVKGRFTISRDNAKNTVYLQMNCLKPEDTAVYYCATDFIWDTAVTGGPNDWEYDYWGQGTQVTVSS"
low polyreactivity

Query: polyreactivity (PSR sort gate); subject: "QVQLVESGGGLVQAGGSLRLSCAASGRTFKGYAMGWYRQAPGKERELVAAISYRGGSTYYADSVKGRFTISRDNAKNTVYLQMNSLKPEDTAVYYCAARWNRGRYDYWGQGTQVTVSS"
high polyreactivity

Query: polyreactivity (PSR sort gate); subject: "QVQLGESGGGLVQAGGSLRLSCAASGRTFPYNAMGWYRQAPGKERELVAAISSGGSTNYADSVKGRFTISRDNAKNTVYLQMNSLKQEDTAVYYCAVTGWPRYTWYSYGYWGQGTQVTLSS"
low polyreactivity

Origin of the recorded values: the nanobody polyreactivity screen of Harvey et al. (2022)
